assay: Primary qHTS for delayed death inhibitors of the malarial parasite plastid, 48 hour incubation; settings: P. falciparum luciferase growth in erythrocytes; series mostly up to 28.7 µM
About 18,000 (5.8%) of roughly 310,000 compounds were called active. Another 22% or so got no clear call; they are omitted. The call rests on the fitted dose curve; in most records, active means well fitted inhibition curve with a large enough effect; inconclusive means small, poorly fitted or top-dose-only effect, or another doubt; inactive means no such curve, though single readings can be large or run the other way. Shown is part of a subset that was picked to be rich in actives.
Tick one outcome: active, inactive

Check the results log: what was the call for COc1ccc(S(=O)(=O)NC(C)c2ccccc2)cc1C(=O)N1CCCCC1 (stereo unspecified) ? inactive

Check the results log: what was the call for Cc1ccc(S(=O)(=O)N2CCC(C)CC2)cc1C(=O)NCc1ccccn1 ? inactive

Check the results log: what was the call for CCOC(=O)C1=C(COC(=O)[C@H](C)NS(=O)(=O)c2ccccc2F)NC(=O)NC1C (stereo partly specified) ? inactive

Check the results log: what was the call for O=[N+]([O-])c1ccc(N(CCO)Cc2ccccc2)c([N+](=O)[O-])c1 ? active

Check the results log: what was the call for O=C(c1cn(-c2ccccc2)nc1-c1cccnc1)N1CCCCC1 ? inactive

Check the results log: what was the call for COCCNC(=O)CN(Cc1ccco1)C(=O)CCC(=O)Nc1nccs1 ? inactive

Check the results log: what was the call for COc1cc(OC)nc(N/N=C(\c2ccccc2)c2ccncc2)n1 ? active

Check the results log: what was the call for CN(Cc1c(F)cccc1Cl)S(=O)(=O)c1cccs1 ? inactive

Check the results log: what was the call for Cc1ccc(N(CC(=O)NC2CCCCC2)C(=O)CCCC(=O)Nc2ccccn2)c(C)c1 ? inactive

Check the results log: what was the call for Clc1ccc(C[n+]2cc(-c3ccccc3)n3c2CCC3)cc1 ? active

Check the results log: what was the call for Cc1ccc(C)c(N(CC(=O)NCc2ccco2)C(=O)CCC(=O)Nc2ccccn2)c1 ? active
